// data source = patent US20180338980A1

Reported values of pIC50 for individual entries
molecular target: P2X4 (Homo sapiens, UniProt Q99571); test: Assay A: human P2X4 receptor cell line, FLIPR calcium assay (Fluo-8, agonist Bz-ATP at EC80); format: cell-based; parameters: host or cells: HEK 293 (recombinant, constitutively expressing; with mitochondrial photina in Assay B); settings: HEK human P2X4 cells, Fluo-8 FLIPR, Bz-ATP at EC80; average values
Sequence (Q99571 whole entry): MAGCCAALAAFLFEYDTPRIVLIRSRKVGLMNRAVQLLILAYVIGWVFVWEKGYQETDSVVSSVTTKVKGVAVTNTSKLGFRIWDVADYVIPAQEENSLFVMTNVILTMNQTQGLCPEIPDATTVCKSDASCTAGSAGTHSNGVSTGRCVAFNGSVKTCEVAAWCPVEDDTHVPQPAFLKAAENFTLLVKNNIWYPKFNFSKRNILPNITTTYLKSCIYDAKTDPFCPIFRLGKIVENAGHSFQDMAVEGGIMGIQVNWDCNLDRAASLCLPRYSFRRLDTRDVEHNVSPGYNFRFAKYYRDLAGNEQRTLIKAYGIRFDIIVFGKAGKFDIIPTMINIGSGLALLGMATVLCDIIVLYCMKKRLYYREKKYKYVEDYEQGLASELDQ
pIC50: −log10 of the molar value.
result-type: pIC50

>  <compound>
NC(=O)c1cccc(Oc2ccc(NC(=O)Cc3ccccc3Cl)cc2S(N)(=O)=O)c1 [Example 017]

>  <target-or-test-system>
P2X4 (Homo sapiens, UniProt Q99571)

>  <result-type>
pIC50

>  <quantitative-readout>
7.21

$$$$
>  <compound>
NS(=O)(=O)c1cc(NC(=O)Cc2ccccc2Cl)ccc1Oc1ccc(C2CCC(=O)N2)cc1 (centres unmarked) [Example 062]

>  <target-or-test-system>
P2X4 (Homo sapiens, UniProt Q99571)

>  <result-type>
pIC50

>  <quantitative-readout>
6.25

$$$$
>  <compound>
Cc1ccc(Cl)c(CC(=O)Nc2ccc(Oc3cccc(Cl)c3)c(S(N)(=O)=O)c2)c1 [Example 097]

>  <target-or-test-system>
P2X4 (Homo sapiens, UniProt Q99571)

>  <result-type>
pIC50

>  <quantitative-readout>
6.92

$$$$
>  <compound>
NS(=O)(=O)c1cc(NC(=O)Cc2ccccc2OC(F)F)ccc1Oc1cccc(Cl)c1 [Example 113]

>  <target-or-test-system>
P2X4 (Homo sapiens, UniProt Q99571)

>  <result-type>
pIC50

>  <quantitative-readout>
6.76

$$$$
>  <compound>
COc1ccccc1Oc1ccc(NC(=O)Cc2ccccc2Cl)cc1S(N)(=O)=O [Example 032]

>  <target-or-test-system>
P2X4 (Homo sapiens, UniProt Q99571)

>  <result-type>
pIC50

>  <quantitative-readout>
7.85

$$$$
>  <compound>
N#Cc1ccc(COc2ccc(NC(=O)Cc3ccccc3Cl)cc2S(N)(=O)=O)cc1 [Example 138]

>  <target-or-test-system>
P2X4 (Homo sapiens, UniProt Q99571)

>  <result-type>
pIC50

>  <quantitative-readout>
8.40

$$$$
>  <compound>
NS(=O)(=O)c1cc(NC(=O)Cc2ccccc2C(F)F)ccc1Oc1cccc(Cl)c1 [Example 089]

>  <target-or-test-system>
P2X4 (Homo sapiens, UniProt Q99571)

>  <result-type>
pIC50

>  <quantitative-readout>
6.99

$$$$
>  <compound>
COc1cccc(Cl)c1CC(=O)Nc1ccc(Oc2cccc(Cl)c2)c(S(N)(=O)=O)c1 [Example 101]

>  <target-or-test-system>
P2X4 (Homo sapiens, UniProt Q99571)

>  <result-type>
pIC50

>  <quantitative-readout>
7.42

$$$$
>  <compound>
COCCN(C)C(=O)c1cccc(CC(=O)Nc2ccc(Oc3cccc(Cl)c3)c(S(N)(=O)=O)c2)c1 [Example 208]

>  <target-or-test-system>
P2X4 (Homo sapiens, UniProt Q99571)

>  <result-type>
pIC50

>  <quantitative-readout>
7.42

$$$$
>  <compound>
Cc1c(Br)ccc(Cl)c1CC(=O)Nc1ccc(Oc2cccc(Cl)c2)c(S(N)(=O)=O)c1 [Example 133]

>  <target-or-test-system>
P2X4 (Homo sapiens, UniProt Q99571)

>  <result-type>
pIC50

>  <quantitative-readout>
6.43

$$$$
>  <compound>
NS(=O)(=O)c1cc(NC(=O)Cc2c(F)ccc(F)c2Cl)ccc1Oc1cccc(Cl)c1 [Example 122]

>  <target-or-test-system>
P2X4 (Homo sapiens, UniProt Q99571)

>  <result-type>
pIC50

>  <quantitative-readout>
7.59

$$$$
>  <compound>
NS(=O)(=O)c1cc(NC(=O)Cc2cc(Br)ccc2Cl)ccc1Oc1cccc(Cl)c1 [Example 117]

>  <target-or-test-system>
P2X4 (Homo sapiens, UniProt Q99571)

>  <result-type>
pIC50

>  <quantitative-readout>
7.37

$$$$
>  <compound>
CC(C)c1cccc(Oc2ccc(NC(=O)Cc3ccccc3Cl)cc2S(N)(=O)=O)c1 [Example 004]

>  <target-or-test-system>
P2X4 (Homo sapiens, UniProt Q99571)

>  <result-type>
pIC50

>  <quantitative-readout>
6.83

$$$$
>  <compound>
NS(=O)(=O)c1cc(NC(=O)Cc2ccccc2Cl)ccc1Oc1ccc(C(F)(F)F)nc1 [Example 283]

>  <target-or-test-system>
P2X4 (Homo sapiens, UniProt Q99571)

>  <result-type>
pIC50

>  <quantitative-readout>
5.09

$$$$
>  <compound>
Cc1cc(NC(=O)Cc2ccccc2Cl)cc(S(N)(=O)=O)c1Oc1cccc(Cl)c1 [Example 270]

>  <target-or-test-system>
P2X4 (Homo sapiens, UniProt Q99571)

>  <result-type>
pIC50

>  <quantitative-readout>
6.98

$$$$
>  <compound>
COC(=O)c1ccc(Oc2ccc(NC(=O)Cc3ccccc3Cl)cc2S(N)(=O)=O)cc1 [Example 273]

>  <target-or-test-system>
P2X4 (Homo sapiens, UniProt Q99571)

>  <result-type>
pIC50

>  <quantitative-readout>
7.74

$$$$
>  <compound>
C=C(C)c1cccc(Oc2ccc(NC(=O)Cc3ccccc3Cl)cc2S(N)(=O)=O)c1 [Example 177]

>  <target-or-test-system>
P2X4 (Homo sapiens, UniProt Q99571)

>  <result-type>
pIC50

>  <quantitative-readout>
6.58

$$$$
>  <compound>
NS(=O)(=O)c1cc(NC(=O)Cc2ccc(F)cc2Cl)ccc1Oc1ccc(Cl)cc1 [Example 231]

>  <target-or-test-system>
P2X4 (Homo sapiens, UniProt Q99571)

>  <result-type>
pIC50

>  <quantitative-readout>
6.28

$$$$
>  <compound>
NS(=O)(=O)c1cc(NC(=O)Cc2ccccc2Cl)ccc1OCc1ccccc1F [Example 137]

>  <target-or-test-system>
P2X4 (Homo sapiens, UniProt Q99571)

>  <result-type>
pIC50

>  <quantitative-readout>
7.46

$$$$
>  <compound>
CC1(COc2ccc(NC(=O)Cc3ccccc3Cl)cc2S(N)(=O)=O)CCOCC1 [Example 053]

>  <target-or-test-system>
P2X4 (Homo sapiens, UniProt Q99571)

>  <result-type>
pIC50

>  <quantitative-readout>
6.71

$$$$
>  <compound>
NS(=O)(=O)c1cc(NC(=O)Cc2ccccc2Cl)ccc1Oc1cccc(N2CCCC2=O)c1 [Example 050]

>  <target-or-test-system>
P2X4 (Homo sapiens, UniProt Q99571)

>  <result-type>
pIC50

>  <quantitative-readout>
8.30

$$$$
>  <compound>
NS(=O)(=O)c1cc(NC(=O)Cc2ccccc2Cl)ccc1OCC1(O)CCC(F)(F)CC1 [Example 287]

>  <target-or-test-system>
P2X4 (Homo sapiens, UniProt Q99571)

>  <result-type>
pIC50

>  <quantitative-readout>
6.73

$$$$
>  <compound>
NS(=O)(=O)c1cc(NC(=O)Cc2ccccc2Cl)ccc1Oc1ccc(N2CCCC2=O)cc1 [Example 043]

>  <target-or-test-system>
P2X4 (Homo sapiens, UniProt Q99571)

>  <result-type>
pIC50

>  <quantitative-readout>
6.29

$$$$
>  <compound>
NS(=O)(=O)c1cc(NC(=O)Cc2ccccc2Cl)ccc1Oc1cccc(C(F)(F)F)c1 [Example 005]

>  <target-or-test-system>
P2X4 (Homo sapiens, UniProt Q99571)

>  <result-type>
pIC50

>  <quantitative-readout>
7.11

$$$$
>  <compound>
CS(=O)(=O)c1cccc(COc2ccc(NC(=O)Cc3ccccc3Cl)cc2S(N)(=O)=O)c1 [Example 136]

>  <target-or-test-system>
P2X4 (Homo sapiens, UniProt Q99571)

>  <result-type>
pIC50

>  <quantitative-readout>
8.00

$$$$
>  <compound>
NS(=O)(=O)c1cc(NC(=O)Cc2ccccc2Cl)ccc1Oc1ccc(N2CCOC2=O)cc1 [Example 063]

>  <target-or-test-system>
P2X4 (Homo sapiens, UniProt Q99571)

>  <result-type>
pIC50

>  <quantitative-readout>
7.05

$$$$
>  <compound>
NS(=O)(=O)c1cc(NC(=O)Cc2cc(F)ccc2Cl)cnc1Oc1cccc(Cl)c1 [Example 296]

>  <target-or-test-system>
P2X4 (Homo sapiens, UniProt Q99571)

>  <result-type>
pIC50

>  <quantitative-readout>
7.23

$$$$
>  <compound>
NS(=O)(=O)c1cc(NC(=O)Cc2c(F)cc(F)cc2Cl)ccc1Oc1cccc(Cl)c1 [Example 259]

>  <target-or-test-system>
P2X4 (Homo sapiens, UniProt Q99571)

>  <result-type>
pIC50

>  <quantitative-readout>
6.84

$$$$
>  <compound>
NS(=O)(=O)c1cc(NC(=O)Cc2ccccc2Cl)ccc1Oc1cccc(OC(F)(F)F)c1 [Example 006]

>  <target-or-test-system>
P2X4 (Homo sapiens, UniProt Q99571)

>  <result-type>
pIC50

>  <quantitative-readout>
7.00

$$$$
>  <compound>
NS(=O)(=O)c1cc(NC(=O)Cc2ccccc2Cl)ccc1Oc1cc(C(F)(F)F)c(Cl)cn1 [Example 284]

>  <target-or-test-system>
P2X4 (Homo sapiens, UniProt Q99571)

>  <result-type>
pIC50

>  <quantitative-readout>
4.96

$$$$
>  <compound>
NS(=O)(=O)c1cc(NC(=O)Cc2ccccc2Cl)ccc1Oc1cccc(OC(F)F)c1 [Example 024]

>  <target-or-test-system>
P2X4 (Homo sapiens, UniProt Q99571)

>  <result-type>
pIC50

>  <quantitative-readout>
6.94

$$$$
>  <compound>
NS(=O)(=O)c1cc(NC(=O)Cc2ccc(C(F)F)cc2)ccc1Oc1ccc(Cl)cc1 [Example 234]

>  <target-or-test-system>
P2X4 (Homo sapiens, UniProt Q99571)

>  <result-type>
pIC50

>  <quantitative-readout>
6.25

$$$$
